Here, each record is paired with measured growth data.
Test system: SR leukemia
method summary: NCI-60 one-dose screen, 48 h (100 = growth as untreated, 0 = no growth, -100 = all killed)
reported conditions: 10 µM unless noted
Protocol: Growth inhibition of the SR human tumor cell line is measured as a screen for anti-cancer activity. Cells are grown in 96 well plates and exposed to the test compound for 48 hours. Compounds are tested at a single concentration, which is 10^-5 M for most compounds. The reported endpoint is percent growth (GI% or GIPRCNT), where numbers from 0 - 100% represent growth inhibition, and numbers from -100% - 0 represent cell death. For example, a value of 40 represents 60% growth inhibition. […]
About 83,000 compounds went through this panel and 20% of them were active in at least one assay; those are over-represented in the sample as a whole. The source made the active and inactive calls. Rule for the calls: active = growth percent below 10; inactive = the rest.

The cases that follow already have their growth on record.
>  <item smiles>
O=C(Cn1nc(-c2cccc3ccccc23)ccc1=O)NCc1cccc(Cl)c1

>  <growth>
22.2% [50 µM] (inactive)

$$$$
>  <item smiles>
CC(C)(C)OC(=O)CN1CCc2c(sc3ncnc(N4CCN(c5ccc(F)cc5)CC4)c23)C1

>  <growth>
79.8% (inactive)

$$$$
>  <item smiles>
Cc1ccc(NC(=O)c2cc3ccccc3cc2O)c(C)c1

>  <growth>
76.8% (inactive)

$$$$

Supply measured growth of CNC(=O)c1cc(Oc2ccc3c(c2)sc2nc(-c4ccc(Cl)c(C(F)(F)F)c4)cn23)ccn1 in your reply. 41.6% (inactive)

Write down growth measured for item O=C(/C=C/c1ccccc1)c1ccc(-n2cc(CN3CCN(c4cc5c(cc4F)c(=O)c(C(=O)O)cn5C4CC4)CC3)nn2)cc1 24.1% (inactive)

* * *

Test system: HOP-62 NSCLC
method summary: NCI-60 one-dose screen, 48 h (100 = growth as untreated, 0 = no growth, -100 = all killed)
reported conditions: 10 µM unless noted
The panel holds about 83,000 compounds, 20% with a hit somewhere; the sample as a whole holds those more often.
recorded endpoint: growth (%)
# value in %; strip the unit string

These recorded examples may help you get a feel for the data.
>  <compound>
COc1ccc2c(c1)c(-c1nc(-c3ccc4ccccc4c3)cs1)cn2C

>  <readout number>
90.4

$$$$
>  <compound>
CCN(CC)CCOc1ccc2ccc(=O)oc2c1

>  <readout number>
100

$$$$
>  <compound>
CCOC(=O)C/C(=N\Nc1cc(=O)[nH]c2ccc(OC)cc12)C(=O)OCC

>  <readout number>
105

$$$$
>  <compound>
CCCC(=O)NC(c1ccc2c(c1)OCO2)c1cc(Cl)c2cccnc2c1O (stereo not given)

>  <readout number>
23.1

$$$$

Turning now to a further record.
Given the compound Cc1cc(C)c2c(c1)N(C)c1ncnc(-n3c(C)nc4cc(C)ccc43)c1CC2C (stereo not given) , write its reported growth. 43.7

* * *

Tested on: COLO 205 colon
method summary: NCI-60 one-dose screen, 48 h (100 = growth as untreated, 0 = no growth, -100 = all killed)
reported conditions: 10 µM unless noted
Compounds without any hit were thinned out: in the full panel of roughly 83,000, 20% have a hit.
recorded endpoint: growth (%)
Give the quantity in %, number only.

Answered examples (6):
>  <compound>
C[N+]1=C(/C=C/c2ccccc2Cl)C(C)(C)c2ccccc21

>  <test target>
COLO 205 colon

>  <growth (%)>
95.9

$$$$
>  <compound>
N#Cc1ccccc1-c1ccc(CN2C(=O)S/C(=C\c3ccc(Br)cc3)C2=O)cc1

>  <test target>
COLO 205 colon

>  <growth (%)>
111

$$$$
>  <compound>
O=[N+]([O-])c1ccccc1Nc1ccc2ccccc2c1

>  <test target>
COLO 205 colon

>  <growth (%)>
72.5

$$$$
>  <compound>
O=CCCCOCc1ccccc1

>  <test target>
COLO 205 colon

>  <growth (%)>
109

$$$$
>  <compound>
Cc1cccc(NC(=O)Cn2cc(CN3CCN(c4ccnc5cc(Cl)ccc45)CC3)nn2)c1

>  <test target>
COLO 205 colon

>  <growth (%)>
98.6

$$$$
>  <compound>
CCN(CC)C(=O)C1=C(C)NC(=O)NC1c1ccc2c(c1)OCO2 (stereo not given)

>  <test target>
COLO 205 colon

>  <growth (%)>
114

$$$$

// below: growth requested for another compound
Query growth for O=C(Nc1cc(Cl)ccc1O)c1ccccc1Nc1ccnc(C(F)(F)F)c1 79.6

* * *

Tested on: SK-MEL-5 melanoma
method summary: NCI-60 one-dose screen, 48 h (100 = growth as untreated, 0 = no growth, -100 = all killed)
reported conditions: 10 µM unless noted
The panel holds about 83,000 compounds, 20% with a hit somewhere; the sample as a whole holds those more often.
recorded endpoint: growth (%)
The reply should contain only the number, in %.

>  <compound>
Nc1ncnc2c1N=C(c1ccc(F)cc1)CC(c1cccc(Nc3ccnc4cc(Cl)ccc34)c1)N2 (centres undefined)

>  <growth (%)>
72

$$$$
>  <compound>
Cc1cc(NCCCNc2ccnc3cc(Cl)ccc23)nc(Nc2ccc(C(=O)N3CCCCC3)cc2)n1

>  <growth (%)>
-98.5

$$$$
>  <compound>
COc1cc2c(cc1-c1c(C)noc1C)ncc1nc(CN3CCOCC3)n([C@H](C)COC(F)F)c12

>  <growth (%)>
19.8

$$$$
>  <compound>
COCC(=O)Oc1cc(-c2ccc(C)cc2C)c(OC(=O)COC)c(-c2ccc(C)cc2C)c1

>  <growth (%)>
13.7

$$$$

Quote growth reported for O=S(=O)(N=C1C(Cl)=C(Cl)C(=NS(=O)(=O)c2ccccc2)C(Cl)=C1Cl)c1ccccc1 please. 87

Look up and state reported growth for O=c1oc2c(cnc3ccccc32)cc1-c1cccc(Cl)c1 107

Give the value of growth reported for the following: O=C(CN1C(=O)S/C(=C\C(Cl)=C\c2ccccc2)C1=O)NC1CCS(=O)(=O)C1 (centres undefined) 84.5

For the compound NS(=O)(=O)c1ccc(C(=O)N=Nc2c(O)[nH]c3ccc(Cl)cc23)cc1 , report growth. 103

Report growth, nothing else, for this compound: CC1(C)N=C(N)N=C(N)N1c1ccc(S(=O)(=O)Nc2nccs2)cc1 106

* * *

System: SF-539 CNS
method summary: NCI-60 one-dose screen, 48 h
reported conditions: 10 µM unless noted
The panel holds about 83,000 compounds, 20% with a hit somewhere; the sample as a whole holds those more often. Activity calls are given as the source filed them. The calls were made as follows: active = growth percent below 10; inactive = the rest.
Permitted responses: active, inactive

>  <compound>
Cn1c(=O)c2[nH]c(SC/C(=N/O)c3ccc(Br)cc3)nc2n(C)c1=O

>  <cat>
active

$$$$

Tell me the assay call for O=C(/C=C/C12c3ccccc3C(c3ccccc31)C1C(=O)NC(=O)C12)c1ccc(Cl)cc1Cl (centres undefined) please. inactive

Tell me the assay call for CCOC(=O)c1cnn(CC(C)O)c1NC(=O)NCc1cccc(F)c1 (centres undefined) please. inactive

What did the test return for CCOC(=O)C/C(=N\Nc1cc(=O)[nH]c2ccc(OC)cc12)C(=O)OCC ? inactive

// outcome(item) with item = N#CC1=C(N)Oc2c(sc3c(F)cccc23)C1c1ccc([N+](=O)[O-])cc1 (centres undefined) active

# lookup: test call for COc1ccc2c(c1)CC[C@@H]1[C@@H]2CC[C@]2(C)c3c(cc(C#N)c4c3sc3ccccc34)C[C@@H]12 inactive

Which result was noted for this compound in the test: COc1ccc(Oc2ccc(/C=C/C(=O)c3cc4ccccc4oc3=O)cc2)cc1 inactive

For this compound, state the assay outcome: COC(=O)/C=C1/SC(=Nc2ccc(F)cc2)N(CCc2c[nH]c3ccc(O)cc23)C1=O inactive

Tell me the recorded outcome of this test for O=C1CCCCN1c1ccc(C2=NCCCN2)cc1 . inactive

I'd appreciate the recorded outcome for C=C(C)[C@@H]1CC[C@]2(C)[C@H](C=CC3=C4C[C@@](C)(CO)CC[C@]4(C)CC[C@]32C)[C@@]1(C)CCCN from this test. active

* * *

Test system: SNB-19 CNS
method summary: NCI-60 one-dose screen, 48 h
reported conditions: 10 µM unless noted
Procedure: Growth inhibition of the SNB-19 human tumor cell line is measured as a screen for anti-cancer activity. Cells are grown in 96 well plates and exposed to the test compound for 48 hours. Compounds are tested at a single concentration, which is 10^-5 M for most compounds. The reported endpoint is percent growth (GI% or GIPRCNT), where numbers from 0 - 100% represent growth inhibition, and numbers from -100% - 0 represent cell death. For example, a value of 40 represents 60% growth inhibition. […]
This is part of a sample that, as a whole, favours compounds with a hit. Of some 83,000 tested, about 20% had one in any assay. Active and inactive are the calls of the source. Rule for the calls: active = growth percent below 10; inactive = the rest.
Reply using exactly one outcome from active, inactive

>  <molecule>
COc1ccc(C2C3=C(COC3=O)N(CCO)c3cc4c(cc32)OCO4)cc1OC (stereo not given)

>  <test target>
SNB-19 CNS

>  <cat>
inactive

$$$$

Any idea what this test logged for C#CCOc1cccc(Nc2ncnc3c2ncn3C2CCN(C(=O)CCl)C2)c1 (stereo not given) ? inactive

Please share the test call associated with Fc1cc2[nH]ncc2c2c3c(c(-c4cn[nH]c4C(F)(F)F)nc12)CCCC3 . active

Given Cc1ccc2c(c1)nc(C)n2-c1ncnc2c1CC(C)c1cc(O)ccc1N2C (stereo not given) , state the outcome it received in this test. inactive

Name the outcome recorded for COC(=O)/C=C1/SC(=NCc2ccccc2)N(CCc2c[nH]c3ccccc23)C1=O in the assay. inactive

Tell me the recorded outcome of this test for O=C1C=CC2(O)OC/C(=C\c3ccccc3)C(O)=C2C1=O (stereo not given) . inactive

Could you kindly confirm the outcome this assay logged for COc1cc(C[C@H]2COc3cc(O)cc(O)c3C2=O)ccc1O ? inactive

Test call, this molecule: O=[N+]([O-])c1ccccc1Nc1ccc2ccccc2c1 inactive

// param item: O=S(=O)(Nc1cc(Sc2nc3ccccc3s2)c(O)c2ccccc12)c1ccc2ccccc2c1 ; yields the recorded call inactive

Please share the test call associated with N#Cc1ccc(/C=C/c2cn(-c3ccccc3)nc2-c2cccc([N+](=O)[O-])c2)cc1 . inactive
